molecular target: interaction between glucokinase (GK) and glucokinase regulatory protein (GKRP) (Homo sapiens, UniProt Q14397); assay: biochemical; format: binding; details: avi-tagged GKRP, GK-fluorescein, AlphaScreen beads; read-out: GK-GKRP IC50 (Binding)
Sequence (Q14397 whole entry): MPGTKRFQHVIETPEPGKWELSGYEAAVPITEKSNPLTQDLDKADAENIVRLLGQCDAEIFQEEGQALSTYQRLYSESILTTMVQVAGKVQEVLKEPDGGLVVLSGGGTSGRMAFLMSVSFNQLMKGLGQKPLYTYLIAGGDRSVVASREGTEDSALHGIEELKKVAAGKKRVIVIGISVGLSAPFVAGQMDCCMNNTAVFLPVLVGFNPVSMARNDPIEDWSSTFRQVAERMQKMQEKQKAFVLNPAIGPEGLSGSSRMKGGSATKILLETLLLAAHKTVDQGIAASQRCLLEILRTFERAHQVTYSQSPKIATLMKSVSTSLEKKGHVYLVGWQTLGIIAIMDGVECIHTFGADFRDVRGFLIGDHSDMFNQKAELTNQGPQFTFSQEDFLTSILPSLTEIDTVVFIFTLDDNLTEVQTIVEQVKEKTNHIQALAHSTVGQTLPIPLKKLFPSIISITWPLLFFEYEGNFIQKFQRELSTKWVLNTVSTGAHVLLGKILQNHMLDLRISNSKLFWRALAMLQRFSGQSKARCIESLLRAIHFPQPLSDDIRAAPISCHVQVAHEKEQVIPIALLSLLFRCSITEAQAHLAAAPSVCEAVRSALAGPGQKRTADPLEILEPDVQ
Kindly state IC50 for each of the entries shown.
One number for each entry, in nM.

Take a look at these entries with their results.
{"compound": "CC(O)(c1ccc(N2CCN(S(=O)(=O)c3cccs3)C[C@@H]2CN2[C@@H]3COC[C@H]2CC(=O)C3)cc1)C(F)(F)F (some centres unmarked) [Example 106]", "IC50 / nM": 35}
{"compound": "CC(C)(C)OC(=O)NCC#Cc1cc(C(O)(C(F)(F)F)C(F)(F)F)ccc1N1CCN(S(=O)(=O)c2cccs2)CC1", "IC50 / nM": 695}
{"compound": "CC(C)N(C[C@H]1CN(S(=O)(=O)c2cccs2)CCN1c1ccc(C(C)(O)C(F)(F)F)cc1)S(=O)(=O)N(C)C (mixture of isomers)", "IC50 / nM": 7}
{"compound": "CC(O)(c1ccc(N2CCN(S(=O)(=O)c3cccs3)C[C@@H]2CN2[C@@H]3COC[C@H]2CC(O)C3)cc1)C(F)(F)F (some centres unmarked)", "IC50 / nM": 5}
{"compound": "CC1(C)C(=O)NCCN1C[C@H]1CN(S(=O)(=O)c2cccs2)CCN1c1ccc(C(C)(O)C(F)(F)F)cc1 (single isomer, unassigned) [Example 180 Peak #1]", "IC50 / nM": 11}

// each listed compound needs a value for IC50
1. CC(C)N(C[C@H]1CN(S(=O)(=O)c2cccs2)CCN1c1ccc(C(C)(O)C(F)(F)F)cc1)C(C)C (mixture of isomers)
2. Nc1ccc(S(=O)(=O)N2CCN(c3ccc(C(O)(C(F)(F)F)C(F)(F)F)cc3)[C@@H](CC3CCOCC3)C2)cn1
3. C[C@H]1COCCN1C[C@H]1CN(S(=O)(=O)c2ccc(N)nc2)CCN1c1ncc(C(O)(C(F)(F)F)C(F)(F)F)cn1
4. COCC#Cc1cc(C(O)(C(F)(F)F)C(F)(F)F)ccc1N1CCN(S(=O)(=O)c2cccs2)CC1
5. CN(Cc1cn(C)cn1)C[C@H]1CN(S(=O)(=O)c2cccs2)CCN1c1ccc(C(C)(O)C(F)(F)F)cc1 (mixture of isomers)

Result:
[205, 22, 27, 363, 521]

// each listed compound needs a value for IC50
1. CC(O)(c1ccc(N2CCN(S(=O)(=O)c3cccs3)C[C@@H]2CN2[C@@H]3COC[C@H]2CC(=O)C3)cc1)C(F)(F)F (single isomer, unassigned) [Example 106 Peak#2]
2. O=S(=O)(c1cccs1)N1CCN(c2ccc(C(O)(C(F)(F)F)C(F)(F)F)cc2C#CCO)CC1
3. CC(O)(c1ccc(N2CCN(S(=O)(=O)c3cccs3)C[C@@H]2CSc2ccc(F)cc2)cc1)C(F)(F)F (mixture of isomers)
4. C[C@H]1CN(S(=O)(=O)c2cccs2)CCN1c1ncc(C(O)(C(F)(F)F)C(F)(F)F)cn1
5. CC(O)(c1ccc(N2CCN(S(=O)(=O)c3cccs3)C[C@@H]2CSc2ccccc2F)cc1)C(F)(F)F (mixture of isomers)

Result:
61
712
30
362
14

// each listed compound needs a value for IC50
1. CC(O)(c1ccc(N2CCN(S(=O)(=O)c3cccs3)C[C@@H]2CN2C3COCC2C(O)C3)cc1)C(F)(F)F (single isomer, unassigned; peak #1) [Example 77 Peak #1]
2. O=S(=O)(c1ccccc1)N1CCN(c2ncc(C(O)(C(F)(F)F)C(F)(F)F)cn2)[C@@H](CN2C3COCC2C(O)C3)C1 (mixture of isomers)
3. CC(O)(c1ccc(N2CCN(S(=O)(=O)c3cccs3)C[C@@H]2CN2C3COCC2C(O)C3)cc1)C(F)(F)F (single isomer, unassigned) [Example 78 Peak #3]

Result:
1: 13; 2: 125; 3: 33

// each listed compound needs a value for IC50
1. CC(O)(c1ccc(N2CCN(S(=O)(=O)c3cccs3)C[C@@H]2CS(=O)(=O)c2ccccc2)cc1)C(F)(F)F (single isomer, unassigned) [Example 187 Peak#1]
2. CC(O)(c1ccc(N2CCN(S(=O)(=O)c3cccs3)C[C@@H]2CN2CCS(=O)(=O)CC2)cc1)C(F)(F)F (mixture of isomers)
3. CC(C)N(C[C@H]1CN(S(=O)(=O)c2ccc(N)s2)CCN1c1ncc(C(O)(C(F)(F)F)C(F)(F)F)cn1)S(C)(=O)=O

Result:
1: 41; 2: 350; 3: 7

// each listed compound needs a value for IC50
1. CC(O)(c1ccc(N2CCN(S(=O)(=O)c3cccs3)C[C@@H]2C[S+]([O-])c2ccc(F)cc2)cc1)C(F)(F)F (single isomer, unassigned) [Example 191 Peak#2]
2. CC(O)(c1ccc(N2CCN(S(=O)(=O)c3cccs3)C[C@@H]2CN2C3COCC2C(O)C3)cc1)C(F)(F)F (single isomer, unassigned) [Example 78 Peak #1]

Result:
[425, 44]
